# PROCEDURE SUMMARY: Photostability, percentage remaining undegraded under illumination or in the dark
# TEST CONDITIONS: percentage remaining undegraded after 24 hours illumination
VALUE TYPE: Photostability 24 hours
Could you write the number and then its unit?

{"MOLECULE": "Cc1cc2cc(N3CC[C@@]4(O)C(=O)c5cc(C)c(C)cc5N=C34)ccc2cn1", "Photostability 24 hours": "60.2%"}
{"MOLECULE": "Cc1ccc2c(c1)C(=O)[C@]1(O)CCN(c3ccc4ccoc4c3)C1=N2", "Photostability 24 hours": "8.2%"}

In the following, a different molecule is considered.
Can you look up the measured Photostability 24 hours of O=C1c2cc(Cl)ccc2NC2N(c3ccc4ccoc4c3)CC[C@@]12O (stereo partly drawn) for me?
9.6%

====

# TARGET OF ASSAY: Rabbit skeletal myosin
# PROCEDURE SUMMARY: Skeletal muscle myosin II actin-activated ATPase assay
# Assay type: biochemical
# TEST CONDITIONS: 20 nM skeletal muscle myosin II; read-out: SKMMII KI
pKi: −log10 of the molar value.
// Not met strictly below 6 in pKi; Met otherwise

Worked set:
{"CHEM SMILES": "Cc1ccc2c(c1)C(=O)[C@]1(O)CCN(c3ccc4ccsc4c3)C1=N2", "TARGET OF ASSAY": "Rabbit skeletal myosin", "CLASS NAME": "Not met"}
{"CHEM SMILES": "Cc1ccc(N2CC[C@@]3(O)C(=O)c4cc(C)c(C)cc4N=C23)cc1", "TARGET OF ASSAY": "Rabbit skeletal myosin", "CLASS NAME": "Met"}
{"CHEM SMILES": "Cc1cc2cc(N3CC[C@@]4(O)C(=O)c5cc(C)c(C)cc5N=C34)ccc2o1", "TARGET OF ASSAY": "Rabbit skeletal myosin", "CLASS NAME": "Not met"}
{"CHEM SMILES": "Cc1ccc2c(c1)C(=O)[C@]1(O)CCN(c3ccc4c(c3)OCCN4)C1=N2", "TARGET OF ASSAY": "Rabbit skeletal myosin", "CLASS NAME": "Not met"}
{"CHEM SMILES": "Cc1cc2c(s1)N=C1N(c3ccc(C#N)c(Cl)c3)CC[C@@]1(O)C2=O", "TARGET OF ASSAY": "Rabbit skeletal myosin", "CLASS NAME": "Not met"}

Continue with the next compound.
Is pKi for Cc1cc2c(cc1C)C(=O)[C@]1(O)CCN(c3ccc4c(c3)OCCN4)C1=N2 at or above 6?
Not met

====

# TARGET OF ASSAY: Bovine cardiac myosin (Bos taurus (Bovine), UniProt Q9BE39)
# Sequence (Q9BE39 whole entry): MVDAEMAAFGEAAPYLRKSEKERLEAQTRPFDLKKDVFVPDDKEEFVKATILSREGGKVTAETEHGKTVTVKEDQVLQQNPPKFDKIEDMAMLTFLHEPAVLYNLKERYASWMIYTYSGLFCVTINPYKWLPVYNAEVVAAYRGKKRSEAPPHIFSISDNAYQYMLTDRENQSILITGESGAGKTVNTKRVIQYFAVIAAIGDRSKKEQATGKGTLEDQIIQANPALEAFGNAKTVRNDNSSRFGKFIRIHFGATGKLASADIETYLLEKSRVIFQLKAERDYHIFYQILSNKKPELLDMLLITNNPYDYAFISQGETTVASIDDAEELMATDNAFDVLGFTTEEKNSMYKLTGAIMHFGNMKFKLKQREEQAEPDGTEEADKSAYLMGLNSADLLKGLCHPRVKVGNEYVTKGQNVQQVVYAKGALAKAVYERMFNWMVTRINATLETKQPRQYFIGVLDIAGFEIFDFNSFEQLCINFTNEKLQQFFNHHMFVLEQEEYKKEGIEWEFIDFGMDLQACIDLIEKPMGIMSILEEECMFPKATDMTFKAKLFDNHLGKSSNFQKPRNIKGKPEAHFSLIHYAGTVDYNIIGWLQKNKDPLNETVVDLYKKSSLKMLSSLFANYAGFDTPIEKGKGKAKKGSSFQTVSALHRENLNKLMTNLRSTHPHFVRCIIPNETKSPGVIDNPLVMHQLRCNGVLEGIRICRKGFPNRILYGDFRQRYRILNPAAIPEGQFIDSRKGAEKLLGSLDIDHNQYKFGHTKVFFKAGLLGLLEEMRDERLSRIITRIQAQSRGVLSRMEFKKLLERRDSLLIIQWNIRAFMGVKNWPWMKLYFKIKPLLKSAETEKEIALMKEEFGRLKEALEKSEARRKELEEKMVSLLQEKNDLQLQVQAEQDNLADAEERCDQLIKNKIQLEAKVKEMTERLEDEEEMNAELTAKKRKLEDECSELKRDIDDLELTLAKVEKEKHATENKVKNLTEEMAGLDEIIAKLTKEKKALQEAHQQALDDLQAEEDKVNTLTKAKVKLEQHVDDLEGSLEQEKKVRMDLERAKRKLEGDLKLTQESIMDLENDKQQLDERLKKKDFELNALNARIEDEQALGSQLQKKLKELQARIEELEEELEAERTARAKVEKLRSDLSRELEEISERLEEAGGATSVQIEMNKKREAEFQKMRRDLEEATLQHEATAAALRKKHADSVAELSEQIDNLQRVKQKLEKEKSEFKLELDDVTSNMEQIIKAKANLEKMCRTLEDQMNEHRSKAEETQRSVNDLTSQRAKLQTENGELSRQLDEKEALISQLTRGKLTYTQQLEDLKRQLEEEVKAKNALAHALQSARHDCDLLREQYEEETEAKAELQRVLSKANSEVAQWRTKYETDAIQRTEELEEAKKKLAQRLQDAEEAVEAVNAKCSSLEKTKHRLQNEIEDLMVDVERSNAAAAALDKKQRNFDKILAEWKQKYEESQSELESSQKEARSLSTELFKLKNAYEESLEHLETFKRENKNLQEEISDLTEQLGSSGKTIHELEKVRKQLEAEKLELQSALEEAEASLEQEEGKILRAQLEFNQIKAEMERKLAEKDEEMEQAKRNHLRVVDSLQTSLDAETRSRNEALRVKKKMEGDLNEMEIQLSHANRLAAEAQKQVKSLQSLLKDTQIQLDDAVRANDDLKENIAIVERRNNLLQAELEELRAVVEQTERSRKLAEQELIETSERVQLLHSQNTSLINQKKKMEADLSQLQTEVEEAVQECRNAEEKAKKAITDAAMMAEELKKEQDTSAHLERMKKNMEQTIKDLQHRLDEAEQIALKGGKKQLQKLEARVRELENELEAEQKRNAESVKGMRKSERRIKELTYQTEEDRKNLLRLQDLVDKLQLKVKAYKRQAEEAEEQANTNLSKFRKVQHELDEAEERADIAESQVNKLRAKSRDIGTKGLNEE
# Sequence (P85100 whole entry partner): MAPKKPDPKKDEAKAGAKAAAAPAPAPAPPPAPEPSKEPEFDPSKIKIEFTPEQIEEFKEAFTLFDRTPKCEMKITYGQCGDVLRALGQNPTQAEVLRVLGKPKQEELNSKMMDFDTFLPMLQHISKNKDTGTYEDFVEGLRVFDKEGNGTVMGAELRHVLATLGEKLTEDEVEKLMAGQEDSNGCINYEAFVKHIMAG
# Sequence (Q3SZE5 whole entry partner): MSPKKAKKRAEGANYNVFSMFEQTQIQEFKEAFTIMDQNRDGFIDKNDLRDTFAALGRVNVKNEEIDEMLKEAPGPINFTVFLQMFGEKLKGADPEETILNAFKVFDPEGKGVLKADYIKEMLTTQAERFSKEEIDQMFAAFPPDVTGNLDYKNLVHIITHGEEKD
# PROCEDURE SUMMARY: Cardiac muscle myosin II actin-activated ATPase assay (NADH-coupled)
# Type: biochemical
# Parameters: key: NMII-sel: no Ki value for cardiac myosin II could be determined; the compounds had no detectable inhibitory properties versus the cardiac myosin II
# TEST CONDITIONS: cardiac myosin II Ki over nonmuscle myosin II EC50
VALUE TYPE: Ratio CMMII:NMII Ki/EC50

{"COMPOUND": "Cc1cc2c(cc1C)C(=O)[C@]1(O)CCN(c3cccc(Cl)c3)C1=N2", "VALUE TYPE": "Ratio CMMII:NMII Ki/EC50", "VALUE OBSERVED": "NMII-sel"}
{"COMPOUND": "Cc1ccc2c(c1)C(=O)[C@]1(O)CCN(c3cc4ncccc4s3)C1=N2", "VALUE TYPE": "Ratio CMMII:NMII Ki/EC50", "VALUE OBSERVED": "NMII-sel"}
{"COMPOUND": "Cc1ccc2c(c1)C(=O)[C@]1(O)CCN(c3cnc(C#N)c(Cl)c3)C1=N2", "VALUE TYPE": "Ratio CMMII:NMII Ki/EC50", "VALUE OBSERVED": "NMII-sel"}
{"COMPOUND": "CCc1cc(N2CC[C@@]3(O)C(=O)c4cc(C)c(C)cc4N=C23)ccn1", "VALUE TYPE": "Ratio CMMII:NMII Ki/EC50", "VALUE OBSERVED": "NMII-sel"}
{"COMPOUND": "Cc1cc2c(cc1C(F)(F)F)N=C1N(c3ccc(C#N)cc3)CC[C@@]1(O)C2=O", "VALUE TYPE": "Ratio CMMII:NMII Ki/EC50", "VALUE OBSERVED": "NMII-sel"}
{"COMPOUND": "Cc1ccc(N2CC[C@@]3(O)C(=O)c4cc(F)c(C)cc4N=C23)cc1C", "VALUE TYPE": "Ratio CMMII:NMII Ki/EC50", "VALUE OBSERVED": "NMII-sel"}

Request: Ratio CMMII:NMII Ki/EC50, test system Bovine cardiac myosin (Bos taurus (Bovine), UniProt Q9BE39), entry Cc1cc2c(cc1C)C(=O)[C@]1(O)CCN(c3ccc4nc(N)ccc4c3)C1=N2
NMII-sel

Now the compound Cc1cc2c(cc1C)C(=O)[C@]1(O)CCN(c3cccc(Br)c3)C1=N2
NMII-sel

Thanks! And N#Cc1ccc(N2CC[C@@]3(O)C(=O)c4c(sc5c4CCCC5)N=C23)cc1 ?
NMII-sel

// query: O=C1c2cc(C(F)(F)F)ccc2N=C2N(c3ccc4ccoc4c3)CC[C@@]12O
NMII-sel

Could you do the same for COc1ncc(N2CC[C@@]3(O)C(=O)c4cc(C)c(C)cc4N=C23)cc1Cl , please?
NMII-sel
